target: Fyn (UniProt P06241); assay: phosphorylation enrichment, bacterial display (enrichment ratio); higher = better substrate or ligand; peptides without Tyr show the background
Sequence (P06241 whole entry, looked up): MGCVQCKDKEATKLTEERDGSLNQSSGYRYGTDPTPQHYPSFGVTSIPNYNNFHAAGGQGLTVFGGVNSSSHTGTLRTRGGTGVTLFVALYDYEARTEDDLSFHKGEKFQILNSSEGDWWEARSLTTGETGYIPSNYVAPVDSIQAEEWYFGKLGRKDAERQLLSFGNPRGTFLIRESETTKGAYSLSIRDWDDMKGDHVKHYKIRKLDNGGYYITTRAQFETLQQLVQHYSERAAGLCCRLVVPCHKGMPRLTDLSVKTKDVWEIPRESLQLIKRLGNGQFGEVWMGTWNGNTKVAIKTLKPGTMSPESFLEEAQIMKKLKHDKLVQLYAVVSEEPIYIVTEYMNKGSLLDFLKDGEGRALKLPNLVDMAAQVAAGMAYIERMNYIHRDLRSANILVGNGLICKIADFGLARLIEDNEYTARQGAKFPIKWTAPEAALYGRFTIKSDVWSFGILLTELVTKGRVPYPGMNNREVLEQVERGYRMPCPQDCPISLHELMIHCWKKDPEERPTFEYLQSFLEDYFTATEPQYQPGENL
Binning of phosphorylation enrichment into classes: range A: < 0.7; range B: ≥ 0.7 and < 1; range C: ≥ 1

Below, 10 sequences whose answers are already recorded.
macromolecule.sequence	target.under.test	answer.label
LTTEVYFPSIK [C5orf64_Y60_A57T]	Fyn (UniProt P06241)	range B
HKNNNYEPSLF [BRCA2_Y57_N60S]	Fyn (UniProt P06241)	range A
LDYNEYFRGLN [HPRT1_Y198_D201G]	Fyn (UniProt P06241)	range C
SRNSKYNAEST [PSEN1_Y315_K311R]	Fyn (UniProt P06241)	range A
FSNPAYFVLEG [INPPL1_Y986_N982S_YF]	Fyn (UniProt P06241)	range A
RNYGTYTAGLS [RHBDD1_Y264_D262G]	Fyn (UniProt P06241)	range C
MKDLTYSSLCF [ALOX5_Y446_A447S]	Fyn (UniProt P06241)	range C
VSAPEYGPKLK [TBC1D14_Y46_L41V]	Fyn (UniProt P06241)	range A
LRSRVYEVPVE [SLC26A3_Y756_N753S]	Fyn (UniProt P06241)	range B
FGGRDYSLDEF [MYOF_Y1705_YF]	Fyn (UniProt P06241)	range A

Now consider the entry below.
Problem: Bin this entry: RDMNACIRPSP [MMAA_Y207_Y207C]
Result: range B

---

test system: c-Abl (mouse); assay: phosphorylation enrichment, bacterial display (enrichment ratio); higher = better substrate or ligand; peptides without Tyr show the background
Quick rule: phosphorylation enrichment of at least 0.6 means met, below that means not met.

Solved entries:
macromolecule.sequence	answer.label
CTTIHYNFVCN [TP53_Y234_M237V_YF]	met
SLTRLYVGENA [NLRP3_Y861]	not met
SSSGAYGGGFG [KRT19_Y61_YF]	not met
INMKKYCKKDY [NTN1_Y490]	met
DTDSSYCIPTA [GAB1_Y373]	met

Problem: Given the entry YRRITYYNWRH [PDE6B_Y556_H557Y] , answer whether its phosphorylation enrichment meets or surpasses 0.6.
Result: not met

---

target: c-Src SH2; assay: SH2 binding enrichment of the phosphorylated peptide, bacterial display (enrichment ratio); higher = better substrate or ligand; peptides without Tyr show the background;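 note: peptide library displayed on the E. coli surface as eCPX fusions, selected cells deep-sequenced, score is each peptide's frequency after selection divided by its frequency in the input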
Rule: SH2 binding enrichment of 0.5 or more gives criterion met; anything lower gives criterion not met.

Some solved cases for reference:
macromolecule.sequence	answer.label
FTDGQYWIRGR [ACSF3_Y466_K462T]	criterion not met
ARGMEYLASKK [FGFR1_Y613]	criterion not met
IIRQLYLKWHP [SACS_Y4333_R4331Q]	criterion met
RSRRSYSCQVM [IGLL1_Y192]	criterion met
MHDSNCVSKGS [PDGFRA_Y849_Y849C]	criterion met

Problem: Item VNFDFYTVNLG [GFPT1_Y367_D366Y_YF] with SH2 binding enrichment of 0.5 or above?
Result: criterion met

Problem: Given YVKEPYIQSRF [HIPK4_Y175] , state whether its SH2 binding enrichment is at least 0.5.
Result: criterion met

Problem: Check if SH2 binding enrichment >= 0.5 (inclusive). Item: LWQSIYNLEAE [TNNT2_Y251]
Result: criterion met

Problem: Has VKKKLYEEIDQ [CYP17A1_Y329] a recorded SH2 binding enrichment greater than or equal to 0.5?
Result: criterion met

Problem: SH2 binding enrichment >= 0.5 for LRYDSYSSYCN [SLC20A2_Y433] ?
Result: criterion met

Problem: # check: SH2 binding enrichment of TGVRDYIHVVD [GALE_Y241] is greater than or equal to 0.5
Result: criterion met

Problem: Could you tell me if the measured SH2 binding enrichment of AGADGYDFLAP [FOXL2_Y186_G187D_YF] reaches 0.5 or more?
Result: criterion met

Data origin, for the record: the supplement of paper PMC10065799
